Cited source: BigSolDB 2.1

# measurement.conditions: in water, 328.15 K
observation.type: solubility (mole fraction)

• O=S(=O)([O-])c1ccc2ccc(S(=O)(=O)[O-])cc2c1.[Na+].[Na+] = 0.0584
• O=S(=O)([O-])c1ccc2cc(S(=O)(=O)[O-])ccc2c1.[Na+].[Na+] = 0.00657

---

# measurement.conditions: in water, 313.15 K
# solubility (mole fraction) annotations
observation.type: solubility (mole fraction)

• O=S(=O)([O-])c1ccc2cc(S(=O)(=O)[O-])ccc2c1.[Na+].[Na+] = 0.00523
• O=S(=O)([O-])c1ccc2ccc(S(=O)(=O)[O-])cc2c1.[Na+].[Na+] = 0.0323
